# Target Of Assay: 5HT2C (Homo sapiens, UniProt P28335)
# Sequence (P28335 33-458): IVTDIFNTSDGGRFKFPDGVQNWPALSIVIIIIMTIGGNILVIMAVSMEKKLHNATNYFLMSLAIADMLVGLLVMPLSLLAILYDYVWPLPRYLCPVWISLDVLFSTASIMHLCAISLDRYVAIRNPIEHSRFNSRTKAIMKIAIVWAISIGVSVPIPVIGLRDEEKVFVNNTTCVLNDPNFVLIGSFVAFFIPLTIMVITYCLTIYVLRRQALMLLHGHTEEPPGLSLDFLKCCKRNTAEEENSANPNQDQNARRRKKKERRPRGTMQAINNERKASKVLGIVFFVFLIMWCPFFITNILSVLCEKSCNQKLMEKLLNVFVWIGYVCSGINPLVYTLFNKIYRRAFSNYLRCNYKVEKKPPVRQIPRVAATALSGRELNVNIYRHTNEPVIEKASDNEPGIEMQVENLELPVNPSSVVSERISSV
# Assay Summary: PLC activity/[3H]-IP formation, 5HT2C
# Details: inhibition of basal (constitutive) [3H]-IP formation
Value Type: pIC50
The read-out pIC50 is expressed as -log10 of concentration in moles per litre.

Request: # pIC50 lookup, item CN(C)[C@@H]1Cc2ccccc2[C@@H](C2CCCCC2)C1 [(−)-trans-CAT]
Result: 6.72

====

Parameter Ki, tested on 5HT2B (Homo sapiens, UniProt P41595), listed per item.
Sequence (P41595 whole entry): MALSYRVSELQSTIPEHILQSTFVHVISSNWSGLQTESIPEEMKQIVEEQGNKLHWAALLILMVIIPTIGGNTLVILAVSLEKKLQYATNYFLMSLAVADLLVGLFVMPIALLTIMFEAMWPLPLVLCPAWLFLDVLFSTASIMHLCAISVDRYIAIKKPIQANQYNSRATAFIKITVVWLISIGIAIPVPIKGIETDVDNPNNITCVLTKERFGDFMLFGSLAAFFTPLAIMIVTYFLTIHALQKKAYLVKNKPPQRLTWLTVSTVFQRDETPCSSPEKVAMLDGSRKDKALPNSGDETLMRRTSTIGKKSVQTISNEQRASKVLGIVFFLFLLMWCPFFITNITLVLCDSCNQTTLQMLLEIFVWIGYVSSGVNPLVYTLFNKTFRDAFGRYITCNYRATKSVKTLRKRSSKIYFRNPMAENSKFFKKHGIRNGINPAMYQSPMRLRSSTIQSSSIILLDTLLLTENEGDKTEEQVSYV
The response must be a number in nM with no trailing unit.

{"columns": ["Molecule", "Quantity Unit", "Ki"],
 "data": [
  ["CN(C)[C@@H]1Cc2ccccc2[C@@H](C2CCCCC2)C1 [(−)-trans-CAT]", "nM", 23.7]
]}

Consider the record given below.
Request: # Ki lookup, item CN(C)[C@H]1Cc2ccccc2[C@H](C2CCCCC2)C1 [(+)-trans-CAT]
Result: 1010
